Molecular target: recombinant human NPY Y2 receptors (Homo sapiens, UniProt P49146)
Construct: expressed in transfected cells; host or cells: CHO-C4 cells (membrane preparation)
Sequence (P49146 1-381): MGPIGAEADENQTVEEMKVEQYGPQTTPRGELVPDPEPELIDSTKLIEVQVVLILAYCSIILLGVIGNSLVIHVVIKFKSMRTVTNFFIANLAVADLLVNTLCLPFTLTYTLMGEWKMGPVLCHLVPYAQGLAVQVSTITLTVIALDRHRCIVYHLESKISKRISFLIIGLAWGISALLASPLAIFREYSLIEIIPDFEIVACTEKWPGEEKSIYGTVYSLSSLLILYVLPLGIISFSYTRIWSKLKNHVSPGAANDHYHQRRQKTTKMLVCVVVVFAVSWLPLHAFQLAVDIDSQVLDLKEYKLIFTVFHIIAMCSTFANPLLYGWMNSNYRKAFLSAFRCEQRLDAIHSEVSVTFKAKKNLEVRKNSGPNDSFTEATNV
Assay: Scintillation proximity [35S]GTPγS binding assay (inhibition of 0.5 nM NPY-stimulated [35S]GTPγS binding)
Assay type: biochemical
Conditions: 10 μM compound, membranes from CHO-C4 cells expressing recombinant human NPY Y2 receptors, read-out: [%] inhibiton at 10 μM
The label depends only on inhibition at 10 µM: YES if it is at least 60%, NO if it is smaller.

Does CC1=NC(c2ccccc2)(c2ccccc2)C(=O)N1CC(=O)c1ccc(NC(=O)Cc2ccccc2C)cc1 [Compound 22] have a reported inhibition at 10 µM of at least 60%? NO

Does CC1=NC(c2ccccc2)(c2ccccc2)C(=O)N1CCc1ccc(NC(=O)CC(C)C)cc1 [Compound 5] have a reported inhibition at 10 µM of at least 60%? NO

Does CCCC1(c2ccc(F)cc2)N=C(C)N(CC(=O)c2ccc(NC(=O)Nc3c(C)noc3C)cc2F)C1=O (racemic) [Compound 11] have a reported inhibition at 10 µM of at least 60%? YES

Does CCCC1(c2ccccc2)N=C(C)N(CC(=O)c2ccc(NC(=O)C3CCOC3)cc2F)C1=O (stereo not shown) [Compound 15] have a reported inhibition at 10 µM of at least 60%? NO

Does CC1=NC(c2ccccc2)(c2ccccc2)C(=O)N1CC(=O)c1ccc(NC(=O)Nc2c(C)noc2C)cc1 [Compound 27] have a reported inhibition at 10 µM of at least 60%? YES

Does CCC(CC)C(=O)Nc1ccc(C(=O)CN2C(=O)C(c3ccccc3)(c3ccccc3)N=C2C)cc1 [Compound 34] have a reported inhibition at 10 µM of at least 60%? YES

// provenance: patent US7786155B2
